Parameter DC50: see the listing below.
Target: AR protein in VCaP cells (Homo sapiens, UniProt P10275)
Construct: endogenous in cells; host or cells: VCaP cells
Sequence (P10275 whole entry): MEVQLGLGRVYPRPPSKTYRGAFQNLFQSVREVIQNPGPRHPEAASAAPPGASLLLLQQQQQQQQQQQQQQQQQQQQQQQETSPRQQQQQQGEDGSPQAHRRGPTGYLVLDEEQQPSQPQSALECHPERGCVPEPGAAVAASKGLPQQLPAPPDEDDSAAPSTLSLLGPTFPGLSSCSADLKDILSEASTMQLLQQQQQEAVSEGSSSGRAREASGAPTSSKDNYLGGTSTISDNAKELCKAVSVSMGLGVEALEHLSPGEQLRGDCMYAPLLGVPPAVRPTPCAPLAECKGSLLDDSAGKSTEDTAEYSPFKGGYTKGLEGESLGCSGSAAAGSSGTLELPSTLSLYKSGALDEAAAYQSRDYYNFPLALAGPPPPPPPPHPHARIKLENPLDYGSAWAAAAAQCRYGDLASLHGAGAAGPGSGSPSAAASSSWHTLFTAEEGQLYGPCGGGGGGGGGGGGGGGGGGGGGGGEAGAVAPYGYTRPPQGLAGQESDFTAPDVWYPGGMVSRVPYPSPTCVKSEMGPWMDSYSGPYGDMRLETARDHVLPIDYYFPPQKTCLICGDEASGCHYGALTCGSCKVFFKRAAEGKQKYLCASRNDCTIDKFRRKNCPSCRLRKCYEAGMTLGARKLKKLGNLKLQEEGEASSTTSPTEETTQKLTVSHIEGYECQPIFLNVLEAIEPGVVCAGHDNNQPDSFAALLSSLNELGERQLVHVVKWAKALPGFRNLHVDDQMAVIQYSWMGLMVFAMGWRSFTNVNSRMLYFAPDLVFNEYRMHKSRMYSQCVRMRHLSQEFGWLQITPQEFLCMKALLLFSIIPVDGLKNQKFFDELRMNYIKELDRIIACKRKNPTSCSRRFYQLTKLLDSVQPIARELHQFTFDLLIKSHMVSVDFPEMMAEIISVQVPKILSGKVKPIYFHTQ
Test: VCAP AR Degradation Assay
Assay type: cell-based
Conditions: 24 h, AR ELISA, concentration at 50% of DMSO control (50% AR degradation)
Where a name gives a salt, the structure may show the parent alone.

Consider the following illustrative entries.
{"molecule": "C[C@@H]1C[C@H](CCO[C@H]2CC[C@H](N3C(=S)N(c4cnc(C#N)c(C(F)(F)F)c4)C(=O)C3(C)C)CC2)C[C@H](C)N1CC(=O)Nc1cccc(NC2CCC(=O)NC2=O)c1 (some centres unmarked)", "DC50": "≤ 5 nM"}
{"molecule": "CC1(C)C(=O)N(c2cnc(C#N)c(C(F)(F)F)c2)C(=S)N1[C@H]1CC[C@H](CCCN2CCN(CC(=O)Nc3cccc(NC4CCC(=O)NC4=O)c3)[C@@H](C(F)(F)F)C2)CC1 (some centres unmarked)", "DC50": "5 to 10 nM"}
{"molecule": "C[C@@H]1C[C@H](OCC[C@H]2CC[C@H](N3C(=S)N(c4cnc(C#N)c(C(F)(F)F)c4)C(=O)C3(C)C)CC2)C[C@H](C)N1CC(=O)Nc1cccc(NC2CCC(=O)NC2=O)c1 (some centres unmarked) [Cmpd 35, hydrochloride]", "DC50": "10 to 100 nM"}
{"molecule": "C[C@@H]1CN(CCO[C@H]2CC[C@H](N3C(=S)N(c4cnc(C#N)c(Cl)c4)C(=O)C3(C)C)CC2)C[C@H](C)N1CC(=O)Nc1cccc(NC2CCC(=O)NC2=O)c1 (some centres unmarked) [Cmpd 8, hydrochloride]", "DC50": "5 to 10 nM"}

Please examine the following record next.
Form field - read-out: DC50; system: AR protein in VCaP cells (Homo sapiens, UniProt P10275); submitted item: C[C@@H]1CN(CCO[C@H]2CC[C@H](N3C(=S)N(c4ccc(C#N)c(C(F)(F)F)c4)C(=O)C3(C)C)CC2)C[C@H](C)N1CC(=O)Nc1cccc(N[C@@H]2CCC(=O)NC2=O)c1 [Cmpd 3, hydrochloride]
5 to 10 nM

----------
Target: AR protein in VCaP cells (Homo sapiens)
Construct: endogenous in cells; host or cells: VCaP cells
Assay: VCAP AR Degradation Assay
Format: cell-based
Settings: 24 h, AR ELISA, concentration at 50% of DMSO control (50% AR degradation)
measure.name: DC50

Consider the following illustrative entries.
{"compound": "CC1(C)C(=O)N(c2ccc(C#N)c(C(F)(F)F)c2)C(=S)N1[C@H]1CC[C@H](OCCN2CCN(CC(=O)Nc3cccc(NC4CCC(=O)NC4=O)c3)[C@H](C(F)(F)F)C2)CC1 (stereo partly drawn)", "DC50": "10 to 100 nM"}
{"compound": "C[C@@H]1CN(CCC[C@H]2CC[C@H](N3C(=S)N(c4ccc(C#N)c(C(F)(F)F)c4)C(=O)C3(C)C)CC2)C[C@H](C)N1CC(=O)Nc1cccc(NC2CCC(=O)NC2=O)c1 (stereo partly drawn)", "DC50": "10 to 100 nM"}

Find the recorded DC50 belonging to CC1(C)C(=O)N(c2ccc(C#N)c(C(F)(F)F)c2)C(=S)N1[C@H]1CC[C@H](OCCN2CCN(CC(=O)Nc3cc(Cl)cc(NC4CCC(=O)NC4=O)c3)[C@@H](C(F)(F)F)C2)CC1 (stereo partly drawn) and report it.
10 to 100 nM

----------
Parameter DC50: see the listing below.
Molecular target: AR protein in VCaP cells (Homo sapiens, UniProt P10275)
Construct: endogenous in cells; host or cells: VCaP cells
Test: VCAP AR Degradation Assay
Type: cell-based
Conditions: 24 h, AR ELISA, concentration at 50% of DMSO control (50% AR degradation)
Structures can show the parent of a compound that is named as a salt.

Find the recorded DC50 belonging to C[C@@H]1CN(CCCO[C@H]2CC[C@H](N3C(=S)N(c4ccc(C#N)c(C(F)(F)F)c4)C(=O)C3(C)C)CC2)C[C@H](C)N1CC(=O)Nc1cccc(NC2CCC(=O)NC2=O)c1 (stereo partly drawn) [Cmpd 12, hydrochloride] and report it.
5 to 10 nM

What do we get for C[C@@H]1C[C@H](OCCC[C@H]2CC[C@H](N3C(=S)N(c4cnc(C#N)c(C(F)(F)F)c4)C(=O)C3(C)C)CC2)C[C@H](C)N1CC(=O)Nc1cccc(NC2CCC(=O)NC2=O)c1 (stereo partly drawn) [Cmpd 33, hydrochloride] ?
5 to 10 nM

What do we get for CC1(C)C(=O)N(c2cnc(C#N)c(C(F)(F)F)c2)C(=S)N1[C@H]1CC[C@H](OCCN2CCN(CC(=O)Nc3cccc(N[C@@H]4CCC(=O)NC4=O)c3)[C@@H](C(F)(F)F)C2)CC1 [Cmpd 42, hydrochloride] ?
≤ 5 nM

----------
Target: AR protein in VCaP cells (Homo sapiens)
Construct: endogenous in cells; host or cells: VCaP cells
Assay: VCAP AR Degradation Assay
Format: cell-based
Settings: 24 h, AR ELISA, concentration at 50% of DMSO control (50% AR degradation)
Where a name gives a salt, the structure may show the parent alone.
Parameter DC50: see the listing below.

{"compound": "C[C@@H]1CN(CCC[C@H]2CC[C@H](N3C(=S)N(c4ccc(C#N)c(C(F)(F)F)c4)C(=O)C3(C)C)CC2)C[C@H](C)N1CC(=O)Nc1cccc(N[C@H]2CCC(=O)NC2=O)c1 [Cmpd 18]", "measure.name": "DC50", "test.value": "10 to 100 nM"}
{"compound": "C[C@@H]1CN(CCC[C@H]2CC[C@H](N3C(=S)N(c4ccc(C#N)c(C(F)(F)F)c4)C(=O)C3(C)C)CC2)C[C@H](C)N1CC(=O)Nc1cc(NC2CCC(=O)NC2=O)ccc1F (some centres unmarked) [Cmpd 39]", "measure.name": "DC50", "test.value": "10 to 100 nM"}
{"compound": "C[C@@H]1CN(CCC[C@H]2CC[C@H](N3C(=S)N(c4ccc(C#N)c(C(F)(F)F)c4)C(=O)C3(C)C)CC2)C[C@H](C)N1CC(=O)Nc1cccc(N[C@@H]2CCC(=O)NC2=O)c1 [Cmpd 6, hydrochloride]", "measure.name": "DC50", "test.value": "5 to 10 nM"}
{"compound": "C[C@@H]1CN(CCO[C@H]2CC[C@H](N3C(=S)N(c4ccc(C#N)c(C(F)(F)F)c4)C(=O)C3(C)C)CC2)C[C@H](C)N1CC(=O)Nc1cccc(NC2CCC(=O)NC2=O)c1 (some centres unmarked) [Cmpd 1]", "measure.name": "DC50", "test.value": "5 to 10 nM"}

Find the recorded DC50 belonging to CC1(C)C(=O)N(c2cnc(C#N)c(C(F)(F)F)c2)C(=S)N1[C@H]1CC[C@H](OCCN2CCN(CC(=O)Nc3cc(C#N)cc(NC4CCC(=O)NC4=O)c3)[C@@H](C(F)(F)F)C2)CC1 (some centres unmarked) [Cmpd 31] and report it.
≤ 5 nM

----------
Biological target: AR protein in VCaP cells (Homo sapiens, UniProt P10275)
Construct: endogenous in cells; host or cells: VCaP cells
Assay: VCAP AR Degradation Assay
Type: cell-based
Conditions: 24 h, AR ELISA, lowest measured AR level normalized to DMSO control
Counter-ions that a name gives are not always drawn.
measure.name: Y

{"compound": "C[C@@H]1CN(CCO[C@H]2CC[C@H](N3C(=S)N(c4ccc(C#N)c(S(F)(F)(F)(F)F)c4)C(=O)C3(C)C)CC2)C[C@H](C)N1CC(=O)Nc1cccc(NC2CCC(=O)NC2=O)c1 (stereo partly shown) [Cmpd 7, hydrochloride]", "Y": "*** (25%<Y<50%)"}
{"compound": "C[C@@H]1CN(CCO[C@H]2CC[C@H](N3C(=S)N(c4cnc(C#N)c(Cl)c4)C(=O)C3(C)C)CC2)C[C@H](C)N1CC(=O)Nc1cccc(NC2CCC(=O)NC2=O)c1 (stereo partly shown) [Cmpd 8, hydrochloride]", "Y": "*** (25%<Y<50%)"}
{"compound": "C[C@@H]1CN(CCO[C@H]2CC[C@H](N3C(=S)N(c4cnc(C#N)c(C(F)(F)F)c4)C(=O)C3(C)C)CC2)C[C@H](C)N1CC(=O)Nc1cccc(N[C@@H]2CCC(=O)NC2=O)c1", "Y": "* (0<Y≤15%)"}
{"compound": "C[C@@H]1CN(CCC[C@H]2CC[C@H](N3C(=S)N(c4cnc(C#N)c(Cl)c4)C(=O)C3(C)C)CC2)C[C@H](C)N1CC(=O)Nc1cccc(NC2CCC(=O)NC2=O)c1 (stereo partly shown) [Cmpd 13, hydrochloride]", "Y": "*** (25%<Y<50%)"}

Find the recorded Y belonging to CC1(C)C(=O)N(c2ccc(C#N)c(C(F)(F)F)c2)C(=S)N1[C@H]1CC[C@H](CCCN2CCN(CC(=O)Nc3cccc(NC4CCC(=O)NC4=O)c3)[C@@H](C(F)(F)F)C2)CC1 (stereo partly shown) and report it.
* (0<Y≤15%)

What do we get for CC1(C)C(=O)N(c2cnc(C#N)c(C(F)(F)F)c2)C(=S)N1[C@H]1CC[C@H](OCCN2CCN(CC(=O)Nc3cc(Cl)cc(NC4CCC(=O)NC4=O)c3)[C@@H](C(F)(F)F)C2)CC1 (stereo partly shown) ?
* (0<Y≤15%)
